Test: Density and magnetic susceptibility of paramagnetic ionic liquids from MagLev levitation height of density standard beads
Assay type: physicochemical
Settings: calculated from levitation height vs density of standard beads (Mirica et al. JACS 2009 method)
property: ρ (density) (g/mL)

| molecule | property | readout units | result number |
| --- | --- | --- | --- |
| CCCC[n+]1ccn(C)c1C.CCCC[n+]1ccn(C)c1C.CCCC[n+]1ccn(C)c1C.[Cl][Dy-3]([Cl])([Cl])([Cl])([Cl])[Cl] [[BDMIM]3 [DyCl6]] | ρ (density) | g/mL | 1.23 |
| COC(=O)[C@H](C)[NH3+].COC(=O)[C@H](C)[NH3+].COC(=O)[C@H](C)[NH3+].[Cl][Dy-3]([Cl])([Cl])([Cl])([Cl])[Cl] [[AlaC1]3 [DyCl6]] | ρ (density) | g/mL | 1.41 |
| CCCCn1cc[n+](C)c1.CCCCn1cc[n+](C)c1.CCCCn1cc[n+](C)c1.[Cl][Dy-3]([Cl])([Cl])([Cl])([Cl])[Cl] [[BMIM]3 [DyCl6]] | ρ (density) | g/mL | 1.37 |
